Values were extracted from patent EP4745130A1.

I'd be grateful if you could share measured half-life at 1 µM for these entries.
Assay: Human liver microsome stability test
Type: in vitro ADME
Conditions: human liver microsomes, NADPH, 37°C, 0-45 min
Protocol: The human liver microsome stability test was performed by incubating the compound and human liver microsomes in vitro. First, the compound to be tested was prepared into a 10 mM stock solution in DMSO solvent, and then the compound was diluted to 0.5 mM with acetonitrile. […] T1/2 was calculated by using GraphPad 5 software. […]
Entry rule: numbers only, all in min.

So what's the measured half-life at 1 µM for this one? Cc1cc(OCCN2C[C@H]3COC[C@H]3C2)ccc1-c1ccc(CC(=O)NCc2ccccc2)nc1
17.2

Follow-up entry: O=C(Cc1ccc(-c2ccc(OCCN3CCOCC3)cc2)cn1)NCc1ccccc1 [Control compound, Tirbanibulin, reference compound]
32.2

---

Test: Pharmacokinetic test in mice
Type: in vivo
Settings: mouse, plasma; male ICR mice, oral gavage administration (5 mg/kg)
readout-label: Cmax (ng/mL)
Entry rule: numbers only, all in ng/mL.

So what's the measured Cmax for this one? Cc1cc(OCCN2C[C@H]3COC[C@H]3C2)ccc1-c1ccc(CC(=O)NCc2ccccc2)nc1 [Compound of Formula I]
322

Follow-up entry: O=C(Cc1ccc(-c2ccc(OCCN3CCOCC3)cc2)cn1)NCc1ccccc1 [Control compound, Tirbanibulin, reference compound]
1010

---

Test: Thermodynamic solubility test
Assay type: physicochemical
Settings: FeSSIF solution, thermodynamic from solid; FeSSIF (pH 6.5); 4 mg/mL, overnight at room temperature; read-out: Solubility (µg/mL) FeSSIF (pH 6.5)
I'd be grateful if you could share measured solubility for these entries.
Entry rule: numbers only, all in µg/mL.

So what's the measured solubility for this one? O=C(Cc1ccc(-c2ccc(OCCN3CCOCC3)cc2)cn1)NCc1ccccc1 [Control compound, Tirbanibulin, reference compound]
60.5

Follow-up entry: Cc1cc(OCCN2C[C@H]3COC[C@H]3C2)ccc1-c1ccc(CC(=O)NCc2ccccc2)nc1
650

---

Test: Solid-state stability (XRPD and HPLC after open storage)
Format: physicochemical
Settings: 40°C/75%RH/open, 1 week
Structures can show the parent of a compound that is named as a salt.
readout-label: Relative to initial (%)
Entry rule: numbers only, all in %.

So what's the measured Relative to initial (%) for this one? Cc1cc(OCCN2C[C@H]3COC[C@H]3C2)ccc1-c1ccc(CC(=O)NCc2ccccc2)nc1 [Crystal form A of fumarate salt]
100.1

Follow-up entry: Cc1cc(OCCN2C[C@H]3COC[C@H]3C2)ccc1-c1ccc(CC(=O)NCc2ccccc2)nc1 [Crystal form A of phosphate salt]
99.9

Follow-up entry: Cc1cc(OCCN2C[C@H]3COC[C@H]3C2)ccc1-c1ccc(CC(=O)NCc2ccccc2)nc1 [Crystal form B of oxalate salt]
100.1

Follow-up entry: Cc1cc(OCCN2C[C@H]3COC[C@H]3C2)ccc1-c1ccc(CC(=O)NCc2ccccc2)nc1 [Crystal form A of benzenesulfonate salt]
99.8

Follow-up entry: Cc1cc(OCCN2C[C@H]3COC[C@H]3C2)ccc1-c1ccc(CC(=O)NCc2ccccc2)nc1 [Free form crystal form A]
99.8

---

Experiment: Dynamic solubility experiment at 37°C (water, SGF, FaSSIF, FeSSIF)
Details: SGF, 24 hours, solid feed 10 mg/mL, 1440 min
Where a name gives a salt, the structure may show the parent alone.
readout-label: S: solubility (µg/mL)
Entry rule: numbers only, all in µg/mL.

So what's the measured S: solubility for this one? Cc1cc(OCCN2C[C@H]3COC[C@H]3C2)ccc1-c1ccc(CC(=O)NCc2ccccc2)nc1 [Free form crystal form A]
6610

Follow-up entry: Cc1cc(OCCN2C[C@H]3COC[C@H]3C2)ccc1-c1ccc(CC(=O)NCc2ccccc2)nc1 [Crystal form A of phosphate salt]
9070

Follow-up entry: Cc1cc(OCCN2C[C@H]3COC[C@H]3C2)ccc1-c1ccc(CC(=O)NCc2ccccc2)nc1 [Crystal form B of oxalate salt]
9610

Follow-up entry: Cc1cc(OCCN2C[C@H]3COC[C@H]3C2)ccc1-c1ccc(CC(=O)NCc2ccccc2)nc1 [Crystal form A of benzenesulfonate salt]
9700

---

Experiment: Dynamic solubility experiment at 37°C (water, SGF, FaSSIF, FeSSIF)
Conditions: H2O, 1 hour, solid feed 10 mg/mL, 60 min
Counter-ions that a name gives are not always drawn.
readout-label: S: solubility (µg/mL)
Entry rule: numbers only, all in µg/mL.

So what's the measured S: solubility for this one? Cc1cc(OCCN2C[C@H]3COC[C@H]3C2)ccc1-c1ccc(CC(=O)NCc2ccccc2)nc1 [Crystal form A of benzenesulfonate salt]
8290

Follow-up entry: Cc1cc(OCCN2C[C@H]3COC[C@H]3C2)ccc1-c1ccc(CC(=O)NCc2ccccc2)nc1 [Crystal form B of oxalate salt]
9650

Follow-up entry: Cc1cc(OCCN2C[C@H]3COC[C@H]3C2)ccc1-c1ccc(CC(=O)NCc2ccccc2)nc1 [Free form crystal form A]
60

Follow-up entry: Cc1cc(OCCN2C[C@H]3COC[C@H]3C2)ccc1-c1ccc(CC(=O)NCc2ccccc2)nc1 [Crystal form A of fumarate salt]
9440

Follow-up entry: Cc1cc(OCCN2C[C@H]3COC[C@H]3C2)ccc1-c1ccc(CC(=O)NCc2ccccc2)nc1 [Crystal form A of phosphate salt]
9830

---

Assay: Dynamic solubility experiment at 37°C (water, SGF, FaSSIF, FeSSIF)
Settings: pH value of the filtrate, H2O, 4 hours
Counter-ions that a name gives are not always drawn.
Rule: pH of 5 or more gives yes (1); anything lower gives no (0).

Please check the record Cc1cc(OCCN2C[C@H]3COC[C@H]3C2)ccc1-c1ccc(CC(=O)NCc2ccccc2)nc1 [Crystal form B of oxalate salt] and state if its pH is at or above 5.
no (0)

Follow-up entry: Cc1cc(OCCN2C[C@H]3COC[C@H]3C2)ccc1-c1ccc(CC(=O)NCc2ccccc2)nc1 [Crystal form A of phosphate salt]
yes (1)

Follow-up entry: Cc1cc(OCCN2C[C@H]3COC[C@H]3C2)ccc1-c1ccc(CC(=O)NCc2ccccc2)nc1 [Crystal form A of benzenesulfonate salt]
yes (1)

Follow-up entry: Cc1cc(OCCN2C[C@H]3COC[C@H]3C2)ccc1-c1ccc(CC(=O)NCc2ccccc2)nc1 [Crystal form A of fumarate salt]
no (0)

Follow-up entry: Cc1cc(OCCN2C[C@H]3COC[C@H]3C2)ccc1-c1ccc(CC(=O)NCc2ccccc2)nc1 [Free form crystal form A]
yes (1)

---

Assay: Dynamic solubility experiment at 37°C (water, SGF, FaSSIF, FeSSIF)
Details: pH value of the filtrate, FaSSIF, 24 hours
Counter-ions that a name gives are not always drawn.
readout-label: pH
Give a plain numeric answer without units written out.

So what's the measured pH for this one? Cc1cc(OCCN2C[C@H]3COC[C@H]3C2)ccc1-c1ccc(CC(=O)NCc2ccccc2)nc1 [Free form crystal form A]
6.6

Follow-up entry: Cc1cc(OCCN2C[C@H]3COC[C@H]3C2)ccc1-c1ccc(CC(=O)NCc2ccccc2)nc1 [Crystal form B of oxalate salt]
4.2

Follow-up entry: Cc1cc(OCCN2C[C@H]3COC[C@H]3C2)ccc1-c1ccc(CC(=O)NCc2ccccc2)nc1 [Crystal form A of fumarate salt]
4.4

Follow-up entry: Cc1cc(OCCN2C[C@H]3COC[C@H]3C2)ccc1-c1ccc(CC(=O)NCc2ccccc2)nc1 [Crystal form A of phosphate salt]
5.9

Follow-up entry: Cc1cc(OCCN2C[C@H]3COC[C@H]3C2)ccc1-c1ccc(CC(=O)NCc2ccccc2)nc1 [Crystal form A of benzenesulfonate salt]
6.1

---

Experiment: Dynamic solubility experiment at 37°C (water, SGF, FaSSIF, FeSSIF)
Conditions: pH value of the filtrate, FaSSIF, 4 hours
Where a name gives a salt, the structure may show the parent alone.
I'd be grateful if you could share measured pH for these entries.

So what's the measured pH for this one? Cc1cc(OCCN2C[C@H]3COC[C@H]3C2)ccc1-c1ccc(CC(=O)NCc2ccccc2)nc1 [Crystal form B of oxalate salt]
4.2

Follow-up entry: Cc1cc(OCCN2C[C@H]3COC[C@H]3C2)ccc1-c1ccc(CC(=O)NCc2ccccc2)nc1 [Free form crystal form A]
6.6

Follow-up entry: Cc1cc(OCCN2C[C@H]3COC[C@H]3C2)ccc1-c1ccc(CC(=O)NCc2ccccc2)nc1 [Crystal form A of phosphate salt]
5.9

Follow-up entry: Cc1cc(OCCN2C[C@H]3COC[C@H]3C2)ccc1-c1ccc(CC(=O)NCc2ccccc2)nc1 [Crystal form A of benzenesulfonate salt]
6.1

Follow-up entry: Cc1cc(OCCN2C[C@H]3COC[C@H]3C2)ccc1-c1ccc(CC(=O)NCc2ccccc2)nc1 [Crystal form A of fumarate salt]
4.4

---

Test: Dynamic solubility experiment at 37°C (water, SGF, FaSSIF, FeSSIF)
Conditions: pH value of the filtrate, H2O, 1 hour
Counter-ions that a name gives are not always drawn.
Rule: pH of 4 or more gives T; anything lower gives F.

Please check the record Cc1cc(OCCN2C[C@H]3COC[C@H]3C2)ccc1-c1ccc(CC(=O)NCc2ccccc2)nc1 [Crystal form A of benzenesulfonate salt] and state if its pH is at or above 4.
T

Follow-up entry: Cc1cc(OCCN2C[C@H]3COC[C@H]3C2)ccc1-c1ccc(CC(=O)NCc2ccccc2)nc1 [Crystal form A of phosphate salt]
T

Follow-up entry: Cc1cc(OCCN2C[C@H]3COC[C@H]3C2)ccc1-c1ccc(CC(=O)NCc2ccccc2)nc1 [Crystal form B of oxalate salt]
F

Follow-up entry: Cc1cc(OCCN2C[C@H]3COC[C@H]3C2)ccc1-c1ccc(CC(=O)NCc2ccccc2)nc1 [Free form crystal form A]
T
